Exercise: state measured screen value for each of the variants provided.
B1: unnamed (parent)
chain 1: DKEWILQKIYEIMRLLDELGHAEASMRVSDLIYEF
chain 2: not shown

# Variants of: B1
# setup-conditions: with partner chain of the complex shown; 12 nM peptide; read off a plot
Kindly provide the numeric value in % only, without the unit symbol.

Exercise: # query: screen value of entry chain 1 S25A
Solution: 9

Exercise: Same question, chain 1 L19A this time
Solution: 1.7

Exercise: Same question, chain 1 Y33A this time
Solution: 86

Exercise: Same question, chain 1 I5A this time
Solution: 3

Exercise: Same question, chain 1 W4A this time
Solution: 3.7

Exercise: Same question, chain 1 D17A this time
Solution: 14

Exercise: Same question, chain 1 K8A this time
Solution: 19

Exercise: Same question, chain 1 G20A this time
Solution: 66

Exercise: Same question, chain 1 R27A this time
Solution: 3

Exercise: Same question, chain 1 E23A this time
Solution: 50

Exercise: Same question, chain 1 S29A this time
Solution: 49

Exercise: Same question, chain 1 V28A this time
Solution: 8.5

Exercise: Same question, chain 1 K2A this time
Solution: 47

Exercise: Same question, chain 1 H21A this time
Solution: 31

Exercise: Same question, chain 1 M13A this time
Solution: 92

Exercise: Same question, chain 1 I9A this time
Solution: 3

Exercise: Same question, chain 1 M26A this time
Solution: 67

Exercise: Same question, chain 1 E34A this time
Solution: 20

Exercise: Same question, chain 1 D1A this time
Solution: 4.5

Exercise: Same question, chain 1 Y10A this time
Solution: 18

Exercise: Same question, chain 1 E11A this time
Solution: 26

Exercise: Same question, chain 1 D30A this time
Solution: 96

Sourced from paper PMC9181698
